These records show Kd for JAK3 (Homo sapiens, UniProt P52333).
quantity_name: Kd

# molecule, result
data = [
    ("Cc1cc(CNc2[nH]nc(Nc3ccc(-c4ccccn4)cc3)c2C(N)=O)cc(C)c1O [Compound 9]", "> 1 µM"),
    ("CC(=O)Nc1cccc(Nc2n[nH]c(NCc3ccc(O)cc3)c2C(N)=O)c1 [reference compound]", "< 0.05 µM"),
    ("N#Cc1cccc(Nc2n[nH]c(NCc3ccc(O)cc3)c2C(N)=O)c1 [reference compound]", "< 0.05 µM"),
    ("NC(=O)c1c(Nc2ccc(N3CCN(C(=O)N4CCOCC4)CC3)cc2)n[nH]c1NCc1ccc(O)cc1 [reference compound]", "< 0.05 µM"),
    ("NC(=O)c1c(Nc2ccc(N3CCCCC3)cn2)n[nH]c1NCc1ccc(O)cc1 [reference compound]", "< 0.05 µM"),
    ("NC(=O)c1c(Nc2ccc(CN3CCCCC3)cc2)n[nH]c1NCc1ccc(O)cc1 [reference compound]", "< 0.05 µM"),
]
